Collected binding signal values appear next to each entry.
Target: T1, UNK ZnF1-3 (human, UniProt Q9C0B0 31-174)
T1 sequence: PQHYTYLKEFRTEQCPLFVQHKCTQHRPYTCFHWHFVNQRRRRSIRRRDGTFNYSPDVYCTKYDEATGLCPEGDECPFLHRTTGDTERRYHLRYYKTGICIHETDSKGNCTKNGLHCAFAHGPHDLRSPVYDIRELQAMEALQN
Assay: nsRBNS (natural sequence RNA bind-n-seq); RBNS binding buffer (assumed for nsRBNS): 25 mM Tris pH 7.5, 150 mM KCl, 3 mM MgCl2, 0.01% Triton X-100, 500 ug/ml BSA, 20 U/ml SUPERase-In, 4 C; UNK is unkempt and MSI1 is Musashi-1; names of the RNAs are library labels; protein concentration not given here; high values mean tight binding
The full ranking holds about 24,000 sequences; the median of “enrichment r” is about 0.99, and the highest 2% start at about 3.7. For the sample, the highest values were picked, then their nearest neighbours and some sequences at random.

- binder: "chr22:32879901:32879902:+_ENSG00000100225_ENST00000397426|hu_mus|hu_hu_hu_mus_False|48_98 (ssRNA) RNA: GGGAGUUCUACAGUCCGACGAUCCUCUUCCAUACUCGCAUUAUCUUGAAUUGACUCAGCUUCAACAUUUUGACUAGGCCCUUCCAUACUGUCGUCAGUCCAGGCAUCAAAUGGGGUGGCCUGUCCUUGGGAUGAAUCAGUCCCCAACAGAGGAUUGAGCAUCA"
  value: "0.919 enrichment R"

Lookup: For the binder chr9:37441256:37441257:-_ENSG00000168795_ENST00000307750|hu_hu|FALSE|FALSE (ssRNA) RNA: GGGAGUUCUACAGUCCGACGAUCAGGCCCAGCCUCUGGACUCAACAAAUAGGGGGCCUCACUCUCCAGCCUGCAGUCACUAGUGGUGUUUGGAAUAUUAUCAUCAUUGUUCUGAUUUGCAGUAAAGUUAUUUCCUCUGCUCUUCAACAGAGGAUUGAGCAUCA , what binding signal is on record?
Found: 0.924 enrichment R

Lookup: Need binding signal of chr3:150289932:150289933:+_ENSG00000144895_ENST00000460851|hu_hu|hu_hu_hu_mus_False|18_28 (ssRNA) RNA: GGGAGUUCUACAGUCCGACGAUCCUUGUAGUUUUUAACAUCCCAUACUUCCAUUUGUCCUCGAAGAUUUCCAAAUCCAGCCAGCACUAAUAUAUGUCCAUGAGGGCUAUAGUAGGCUGCAUUACGAGGACCAGUCCCAAAGUCCAACAGAGGAUUGAGCAUCA , thanks.
Found: 0.862 enrichment R
